Data credit: patent US8148391B2

Below, each entry is listed alongside its reported IC50.
Biological target: c-Met (cytoplasmic domain) (Homo sapiens)
Construct: 10 ng/mL c-Met (cytoplasmic domain, Invitrogen Corporation #PV3143); purchased Invitrogen Corporation PV3143
Sequence (P08581 956-1390 limits assumed): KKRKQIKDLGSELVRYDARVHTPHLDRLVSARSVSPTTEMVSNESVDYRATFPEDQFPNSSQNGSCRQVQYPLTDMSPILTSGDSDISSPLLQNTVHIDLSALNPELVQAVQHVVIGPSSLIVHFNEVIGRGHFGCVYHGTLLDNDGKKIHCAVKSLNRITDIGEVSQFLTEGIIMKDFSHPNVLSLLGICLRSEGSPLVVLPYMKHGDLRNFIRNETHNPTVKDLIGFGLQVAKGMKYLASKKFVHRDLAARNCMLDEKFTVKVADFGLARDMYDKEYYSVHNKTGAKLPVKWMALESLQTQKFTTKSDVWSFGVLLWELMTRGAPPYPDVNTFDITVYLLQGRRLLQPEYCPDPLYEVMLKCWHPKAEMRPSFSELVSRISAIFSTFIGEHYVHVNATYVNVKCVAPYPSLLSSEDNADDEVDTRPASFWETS
Assay: c-Met Kinase Assay (same methods as for ALK, with modifications)
Assay type: biochemical
Settings: c-Met kinase inhibition, 1 μM ATP (Km level); read-out: cMet Activity
OBSERVABLE: IC50

> print(dat)
                                    compound  observable        test.value
 1  CCN1C2CCC1c1cc(Nc3ncc(Cl)c(Nc4ccccc4C(=O)NC)n3)ccc1C2 (racemic)        IC50          < 100 nM
 2  COCCN1CCc2ccc(OC)c(Nc3ncc(Cl)c(N[C@H]4[C@@H](C(N)=O)[C@@H]5C=C[C@H]4C5)n3)c2CC1 (relative stereo)        IC50        > 10000 nM
 3  COc1cc(N2CCOCC2)ccc1Nc1nc(Nc2ccc(OC)c3c2N(C)C(=O)CCC3)ncc1Cl        IC50        > 10000 nM
 4  COc1cc(N2CCOCC2)ccc1Nc1nc(Nc2ccc3c(c2)CCCCN3C)ncc1Cl        IC50        > 10000 nM
 5  C#CCN1CC2CCC(C1)c1cc(Nc3ncc(Cl)c(Nc4ccccc4S(=O)(=O)N(C)CC#C)n3)ccc12 (centres unmarked)        IC50    100 to 1000 nM
 6  CN1C(=O)CCCc2cc(Nc3ncc(Cl)c(Nc4ccccc4C(=O)NCCO)n3)ccc21        IC50          < 100 nM
 7  COc1cc(N2CCOCC2)ccc1Nc1nc(Nc2ccc3c(c2)CCC(F)(F)CC3)ncc1Cl        IC50        > 10000 nM
 8  COC(=O)CN1CCN(C)c2cc(Nc3ncc(Cl)c(Nc4ccccc4NS(C)(=O)=O)n3)ccc2C1        IC50    100 to 1000 nM
 9  CN1C(=O)CCCc2ccc(Nc3ncc(Cl)c(NC4C5C=CC(C5)C4C(N)=O)n3)cc21 (centres unmarked)        IC50    100 to 1000 nM
10  COCCN1CCc2ccc(Nc3ncc(Cl)c(N[C@@H]4CCCC[C@H]4NS(=O)(=O)C4CC4)n3)cc2CC1        IC50  1000 to 10000 nM
11  CCC(C)N1C2CCC1c1cc(Nc3ncc(Cl)c(N[C@@H]4CCCC[C@H]4NS(C)(=O)=O)n3)ccc1C2 (mixture of isomers)        IC50    100 to 1000 nM
12  CCN1CCc2ccc(Nc3ncc(Cl)c(Nc4ccccc4NS(C)(=O)=O)n3)c(OC)c2CC1        IC50        > 10000 nM
13  C#CCN1CCc2ccc(Nc3ncc(Cl)c(Nc4ccccc4C(=O)NC)n3)cc2CC1        IC50          < 100 nM
14  C#CCN1C2CCC1c1cc(Nc3ncc(Cl)c(Nc4ccccc4C(=O)NC)n3)ccc1C2 (centres unmarked)        IC50          < 100 nM
15  CNC(=O)c1ccccc1Nc1nc(Nc2cc3c(cc2OC)CCN(CC(=O)N(C)C)CC3)ncc1Cl        IC50    100 to 1000 nM
16  CCN1CCc2ccc(Nc3ncc(Cl)c(N[C@H]4CCC[C@H]4C(N)=O)n3)cc2CC1 (relative stereo)        IC50  1000 to 10000 nM
17  CC(C)N1CC2CCC(C1)c1cc(Nc3ncc(Cl)c(N[C@@H]4CCCC[C@H]4NS(C)(=O)=O)n3)ccc12 (some centres unmarked)        IC50    100 to 1000 nM
18  CNC(=O)c1cccc(C)c1Nc1nc(Nc2ccc3c(c2)C(=O)NCCC3)ncc1Cl        IC50    100 to 1000 nM
19  NC(=O)C1C2CCC(C2)C1Nc1nc(Nc2ccc3c(c2)CCN(CC(O)C(F)(F)F)CC3)ncc1Cl (centres unmarked)        IC50    100 to 1000 nM
20  CCN1CCc2ccc(Nc3ncc(Cl)c(NCCCC(=O)NC)n3)cc2CC1        IC50  1000 to 10000 nM
21  CNC(=O)c1ccccc1Nc1nc(Nc2cc3c(cc2OC)CCN(CC(=O)N(C)C)CC3)ncc1Br        IC50  1000 to 10000 nM
22  CNC(=O)c1ccccc1Nc1nc(Nc2ccc3c(c2)CCCC(=O)N3)ncc1Cl        IC50          < 100 nM
23  C#CCN1CCc2ccc(Nc3ncc(Cl)c(Nc4ccc(N5CCOCC5)cc4OC)n3)cc2CC1        IC50  1000 to 10000 nM
24  CS(=O)(=O)N[C@@H]1CCCC[C@H]1Nc1nc(Nc2ccc3c(c2)CCN(C[C@@H](O)C(F)(F)F)CC3)ncc1Cl        IC50    100 to 1000 nM
25  CNC(=O)c1cccc(Cl)c1Nc1nc(Nc2ccc3c(c2)C2CCC(C3)N2CCOC)ncc1Cl (centres unmarked)        IC50          < 100 nM
26  COc1c(Nc2ncc(Cl)c(N[C@H]3[C@@H](C(N)=O)[C@@H]4C=C[C@H]3C4)n2)ccc2c1CCCC(=O)N2 (relative stereo)        IC50        > 10000 nM
27  COc1c(Nc2ncc(Cl)c(N[C@@H]3CCCC[C@H]3NS(C)(=O)=O)n2)ccc2c1CCCC(=O)N2C        IC50        > 10000 nM
28  CNS(=O)(=O)c1ccccc1Nc1nc(Nc2ccc3c(c2)C2CCC3CN(C(=O)C(F)(F)F)C2)ncc1Cl (centres unmarked)        IC50    100 to 1000 nM
29  CCN1CCc2ccc(Nc3ncc(Cl)c(N[C@H]4CCCC[C@H]4C(=O)NC)n3)cc2CC1 (relative stereo)        IC50    100 to 1000 nM
